- procedure.text: Photocleavage study: irradiation at 360 nm, composition by HPLC
- Type: physicochemical
- particulars: 1 mM, 5% water in acetonitril, 360 nm; irradiation time 60 min; share of the labelled species
assay.endpoint: Molar composition of a solution of 2',7-bisNvoc-PTX after irradiation (%)
Please respond with the number in % and leave the unit unwritten.

QUERY: Can you share its Molar composition of a solution of 2',7-bisNvoc-PTX after irradiation? I mean this compound: `COc1cc(COC(=O)O[C@H]2C[C@H]3OC[C@@]3(OC(C)=O)[C@H]3[C@H](OC(=O)c4ccccc4)[C@]4(O)C[C@H](OC(=O)[C@H](OC(=O)OCc5cc(OC)c(OC)cc5[N+](=O)[O-])[C@@H](NC(=O)c5ccccc5)c5ccccc5)C(C)=C([C@@H](OC(C)=O)C(=O)[C@]23C)C4(C)C)c([N+](=O)[O-])cc1OC`
RESULT: 90.5

QUERY: Query: Molar composition of a solution of 2',7-bisNvoc-PTX after irradiation; subject: `COc1cc(COC(=O)O[C@@H](C(=O)O[C@H]2C[C@@]3(O)[C@@H](OC(=O)c4ccccc4)[C@@H]4[C@]5(OC(C)=O)CO[C@@H]5C[C@H](O)[C@@]4(C)C(=O)[C@H](OC(C)=O)C(=C2C)C3(C)C)[C@@H](NC(=O)c2ccccc2)c2ccccc2)c([N+](=O)[O-])cc1OC`
RESULT: 6.3

QUERY: Bench note: what Molar composition of a solution of 2',7-bisNvoc-PTX after irradiation did `CC(=O)O[C@H]1C(=O)[C@@]2(C)[C@H]([C@H](OC(=O)c3ccccc3)[C@]3(O)C[C@H](OC(=O)[C@H](O)[C@@H](NC(=O)c4ccccc4)c4ccccc4)C(C)=C1C3(C)C)[C@]1(OC(C)=O)CO[C@@H]1C[C@@H]2O` show?
RESULT: 0

QUERY: I would be grateful if you could share the reported Molar composition of a solution of 2',7-bisNvoc-PTX after irradiation for `COc1cc(COC(=O)O[C@H]2C[C@H]3OC[C@@]3(OC(C)=O)[C@H]3[C@H](OC(=O)c4ccccc4)[C@]4(O)C[C@H](OC(=O)[C@H](O)[C@@H](NC(=O)c5ccccc5)c5ccccc5)C(C)=C([C@@H](OC(C)=O)C(=O)[C@]23C)C4(C)C)c([N+](=O)[O-])cc1OC` .
RESULT: 3.2

* * *

- procedure.text: Photocleavage study: irradiation at 360 nm, composition by HPLC
- Assay type: physicochemical
- particulars: 1 mM, 5% water in acetonitril, 360 nm; irradiation time 1585 min; share of the labelled species
assay.endpoint: Molar composition of a solution of 2',7-bisNvoc-PTX after irradiation (%)
Give the value in % but do not write % after it.

QUERY: Query (compound): COc1cc(COC(=O)O[C@H]2C[C@H]3OC[C@@]3(OC(C)=O)[C@H]3[C@H](OC(=O)c4ccccc4)[C@]4(O)C[C@H](OC(=O)[C@H](O)[C@@H](NC(=O)c5ccccc5)c5ccccc5)C(C)=C([C@@H](OC(C)=O)C(=O)[C@]23C)C4(C)C)c([N+](=O)[O-])cc1OC [7-Nvoc-PTX] ; field requested: Molar composition of a solution of 2',7-bisNvoc-PTX after irradiation
RESULT: 7.8

QUERY: Given the entry COc1cc(COC(=O)O[C@@H](C(=O)O[C@H]2C[C@@]3(O)[C@@H](OC(=O)c4ccccc4)[C@@H]4[C@]5(OC(C)=O)CO[C@@H]5C[C@H](O)[C@@]4(C)C(=O)[C@H](OC(C)=O)C(=C2C)C3(C)C)[C@@H](NC(=O)c2ccccc2)c2ccccc2)c([N+](=O)[O-])cc1OC [2'-Nvoc-PTX] , report its measured Molar composition of a solution of 2',7-bisNvoc-PTX after irradiation.
RESULT: 25.6

QUERY: Request the reported Molar composition of a solution of 2',7-bisNvoc-PTX after irradiation associated with COc1cc(COC(=O)O[C@H]2C[C@H]3OC[C@@]3(OC(C)=O)[C@H]3[C@H](OC(=O)c4ccccc4)[C@]4(O)C[C@H](OC(=O)[C@H](OC(=O)OCc5cc(OC)c(OC)cc5[N+](=O)[O-])[C@@H](NC(=O)c5ccccc5)c5ccccc5)C(C)=C([C@@H](OC(C)=O)C(=O)[C@]23C)C4(C)C)c([N+](=O)[O-])cc1OC [2',7-bisNvoc-PTX]
RESULT: 6.1

QUERY: Entry CC(=O)O[C@H]1C(=O)[C@@]2(C)[C@H]([C@H](OC(=O)c3ccccc3)[C@]3(O)C[C@H](OC(=O)[C@H](O)[C@@H](NC(=O)c4ccccc4)c4ccccc4)C(C)=C1C3(C)C)[C@]1(OC(C)=O)CO[C@@H]1C[C@@H]2O [PTX, Paclitaxel] has what Molar composition of a solution of 2',7-bisNvoc-PTX after irradiation?
RESULT: 60.5

* * *

- procedure.text: Photocleavage study: irradiation at 360 nm, composition by HPLC
- Format: physicochemical
- particulars: 1 mM, 5% water in acetonitril, 360 nm (2.7 mW/cm^2); irradiation time 0 min; share of the labelled species
- Method: The photolysis of the compounds 2'-Nvoc-PTX and 2',7-bisNvoc-PTX was followed by UV and HPLC analysis of the correspondent solutions after exposure to light at λmax = 360 nm (2.7 mW/cm^2). 3 ml of a 1 mM solution of caged PTX in acetonitrile containing 5% water was placed into a quartz cuvette and was exposed at 360 nm for different irradiation times. Aliquots of 50 µl were taken after various irradiation times, and each aliquot was splitted in two parts. […]
assay.endpoint: Molar composition of a solution of 2',7-bisNvoc-PTX after irradiation (%)
Only the number, expressed in %, is required.

QUERY: Quick one: Molar composition of a solution of 2',7-bisNvoc-PTX after irradiation of CC(=O)O[C@H]1C(=O)[C@@]2(C)[C@H]([C@H](OC(=O)c3ccccc3)[C@]3(O)C[C@H](OC(=O)[C@H](O)[C@@H](NC(=O)c4ccccc4)c4ccccc4)C(C)=C1C3(C)C)[C@]1(OC(C)=O)CO[C@@H]1C[C@@H]2O [PTX, Paclitaxel] ?
RESULT: 0

QUERY: If you can, please state the reported Molar composition of a solution of 2',7-bisNvoc-PTX after irradiation value of COc1cc(COC(=O)O[C@H]2C[C@H]3OC[C@@]3(OC(C)=O)[C@H]3[C@H](OC(=O)c4ccccc4)[C@]4(O)C[C@H](OC(=O)[C@H](O)[C@@H](NC(=O)c5ccccc5)c5ccccc5)C(C)=C([C@@H](OC(C)=O)C(=O)[C@]23C)C4(C)C)c([N+](=O)[O-])cc1OC [7-Nvoc-PTX] .
RESULT: 0

QUERY: Would you kindly share the measured Molar composition of a solution of 2',7-bisNvoc-PTX after irradiation for COc1cc(COC(=O)O[C@H]2C[C@H]3OC[C@@]3(OC(C)=O)[C@H]3[C@H](OC(=O)c4ccccc4)[C@]4(O)C[C@H](OC(=O)[C@H](OC(=O)OCc5cc(OC)c(OC)cc5[N+](=O)[O-])[C@@H](NC(=O)c5ccccc5)c5ccccc5)C(C)=C([C@@H](OC(C)=O)C(=O)[C@]23C)C4(C)C)c([N+](=O)[O-])cc1OC [2',7-bisNvoc-PTX] ?
RESULT: 100

QUERY: Entry under review: COc1cc(COC(=O)O[C@@H](C(=O)O[C@H]2C[C@@]3(O)[C@@H](OC(=O)c4ccccc4)[C@@H]4[C@]5(OC(C)=O)CO[C@@H]5C[C@H](O)[C@@]4(C)C(=O)[C@H](OC(C)=O)C(=C2C)C3(C)C)[C@@H](NC(=O)c2ccccc2)c2ccccc2)c([N+](=O)[O-])cc1OC [2'-Nvoc-PTX] . Reported Molar composition of a solution of 2',7-bisNvoc-PTX after irradiation?
RESULT: 0

* * *

- procedure.text: Photocleavage study: irradiation at 360 nm, composition by HPLC
- Format: physicochemical
- particulars: 1 mM, 5% water in acetonitril, 360 nm; irradiation time 570 min; share of the labelled species
assay.endpoint: Molar composition of a solution of 2',7-bisNvoc-PTX after irradiation (%)
Kindly answer with a numeric value in %, unit omitted.

QUERY: What Molar composition of a solution of 2',7-bisNvoc-PTX after irradiation value was documented for this molecule, `COc1cc(COC(=O)O[C@H]2C[C@H]3OC[C@@]3(OC(C)=O)[C@H]3[C@H](OC(=O)c4ccccc4)[C@]4(O)C[C@H](OC(=O)[C@H](O)[C@@H](NC(=O)c5ccccc5)c5ccccc5)C(C)=C([C@@H](OC(C)=O)C(=O)[C@]23C)C4(C)C)c([N+](=O)[O-])cc1OC` ?
RESULT: 14.9

QUERY: Which measured Molar composition of a solution of 2',7-bisNvoc-PTX after irradiation value corresponds to `COc1cc(COC(=O)O[C@H]2C[C@H]3OC[C@@]3(OC(C)=O)[C@H]3[C@H](OC(=O)c4ccccc4)[C@]4(O)C[C@H](OC(=O)[C@H](OC(=O)OCc5cc(OC)c(OC)cc5[N+](=O)[O-])[C@@H](NC(=O)c5ccccc5)c5ccccc5)C(C)=C([C@@H](OC(C)=O)C(=O)[C@]23C)C4(C)C)c([N+](=O)[O-])cc1OC` ?
RESULT: 42.2

QUERY: Entry `COc1cc(COC(=O)O[C@@H](C(=O)O[C@H]2C[C@@]3(O)[C@@H](OC(=O)c4ccccc4)[C@@H]4[C@]5(OC(C)=O)CO[C@@H]5C[C@H](O)[C@@]4(C)C(=O)[C@H](OC(C)=O)C(=C2C)C3(C)C)[C@@H](NC(=O)c2ccccc2)c2ccccc2)c([N+](=O)[O-])cc1OC` has what Molar composition of a solution of 2',7-bisNvoc-PTX after irradiation?
RESULT: 32.3

QUERY: Look at this molecule and give its reported Molar composition of a solution of 2',7-bisNvoc-PTX after irradiation. `CC(=O)O[C@H]1C(=O)[C@@]2(C)[C@H]([C@H](OC(=O)c3ccccc3)[C@]3(O)C[C@H](OC(=O)[C@H](O)[C@@H](NC(=O)c4ccccc4)c4ccccc4)C(C)=C1C3(C)C)[C@]1(OC(C)=O)CO[C@@H]1C[C@@H]2O`
RESULT: 10.6
